TARGET_ENTITY: EZH2 (Homo sapiens)
ASSAY_DETAILS: EZH2 assay: rPRC2 with biotinylated oligonucleosome substrates and 3H SAM, FlashPlate scintillation counting, IC50
Format: biochemical
RECORDED_CONDITIONS: rPRC2, biotinylated oligonucleosome substrates, 3H SAM; read-out: EZH2 IC50
pIC50: −log10 of the molar value.
OUTCOME_MEASURE: pIC50

The cases that follow already have their pIC50 on record.
For the molecule `CC1(C)CC(C#N)(NC(=O)c2ccc(Oc3cccc(-c4ccnnc4)c3C#N)c(Cl)c2)CC(C)(C)N1` , report pIC50.
> 5.30

State, in one line, measured pIC50 of `CNC(=O)CC1(NC(=O)c2ccc(Oc3cccc(-c4ccnnc4)c3C#N)c(Cl)c2)CC(C)(C)NC(C)(C)C1`
< 4.10

Give the reported value of pIC50 for this record: `CC1(C)CC(NC(=O)c2ccc(C3=NCC(=O)Nc4ccccc43)cc2)CC(C)(C)N1`
< 4.10

# evaluate next
Provide one value: measured pIC50 of `CC1(C)CC(NC(=O)c2ccc(Oc3ccccc3-c3nn[nH]n3)c(Cl)c2)CC(C)(C)N1`
< 4.10

====

TARGET_ENTITY: EZH2 (Homo sapiens, UniProt Q15910)
Sequence (Q15910 whole entry): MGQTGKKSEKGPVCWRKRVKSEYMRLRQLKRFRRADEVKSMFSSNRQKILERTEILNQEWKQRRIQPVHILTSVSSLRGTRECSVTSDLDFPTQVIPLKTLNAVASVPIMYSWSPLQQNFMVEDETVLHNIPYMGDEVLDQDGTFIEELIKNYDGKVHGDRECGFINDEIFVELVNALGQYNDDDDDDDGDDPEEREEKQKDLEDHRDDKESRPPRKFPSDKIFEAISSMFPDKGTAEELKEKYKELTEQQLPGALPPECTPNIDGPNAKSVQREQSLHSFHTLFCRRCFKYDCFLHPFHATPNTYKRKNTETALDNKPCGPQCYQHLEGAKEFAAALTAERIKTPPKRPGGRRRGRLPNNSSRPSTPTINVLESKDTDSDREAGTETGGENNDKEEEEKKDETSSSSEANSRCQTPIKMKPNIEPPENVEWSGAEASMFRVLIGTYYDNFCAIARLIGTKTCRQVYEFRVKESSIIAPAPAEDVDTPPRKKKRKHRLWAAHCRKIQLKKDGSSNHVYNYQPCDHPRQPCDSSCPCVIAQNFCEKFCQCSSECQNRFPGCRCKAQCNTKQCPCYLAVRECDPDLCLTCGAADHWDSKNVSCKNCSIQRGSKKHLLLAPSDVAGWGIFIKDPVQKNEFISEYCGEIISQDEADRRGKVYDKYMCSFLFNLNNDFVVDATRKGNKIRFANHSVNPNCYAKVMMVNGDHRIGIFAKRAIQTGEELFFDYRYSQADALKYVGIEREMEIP
Sequence (O75530 whole entry partner): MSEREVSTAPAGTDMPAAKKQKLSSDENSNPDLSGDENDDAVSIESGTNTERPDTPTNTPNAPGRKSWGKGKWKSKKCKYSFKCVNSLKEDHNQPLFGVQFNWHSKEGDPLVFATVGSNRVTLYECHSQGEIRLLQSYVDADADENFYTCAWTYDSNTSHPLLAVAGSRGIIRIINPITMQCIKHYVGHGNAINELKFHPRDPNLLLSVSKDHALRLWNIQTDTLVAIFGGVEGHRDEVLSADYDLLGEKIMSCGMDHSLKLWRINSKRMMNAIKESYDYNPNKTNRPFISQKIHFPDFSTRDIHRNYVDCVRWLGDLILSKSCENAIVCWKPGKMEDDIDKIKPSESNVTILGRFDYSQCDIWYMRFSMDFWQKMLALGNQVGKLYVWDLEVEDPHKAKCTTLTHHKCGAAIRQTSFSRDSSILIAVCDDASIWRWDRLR
Sequence (Q15022 whole entry partner): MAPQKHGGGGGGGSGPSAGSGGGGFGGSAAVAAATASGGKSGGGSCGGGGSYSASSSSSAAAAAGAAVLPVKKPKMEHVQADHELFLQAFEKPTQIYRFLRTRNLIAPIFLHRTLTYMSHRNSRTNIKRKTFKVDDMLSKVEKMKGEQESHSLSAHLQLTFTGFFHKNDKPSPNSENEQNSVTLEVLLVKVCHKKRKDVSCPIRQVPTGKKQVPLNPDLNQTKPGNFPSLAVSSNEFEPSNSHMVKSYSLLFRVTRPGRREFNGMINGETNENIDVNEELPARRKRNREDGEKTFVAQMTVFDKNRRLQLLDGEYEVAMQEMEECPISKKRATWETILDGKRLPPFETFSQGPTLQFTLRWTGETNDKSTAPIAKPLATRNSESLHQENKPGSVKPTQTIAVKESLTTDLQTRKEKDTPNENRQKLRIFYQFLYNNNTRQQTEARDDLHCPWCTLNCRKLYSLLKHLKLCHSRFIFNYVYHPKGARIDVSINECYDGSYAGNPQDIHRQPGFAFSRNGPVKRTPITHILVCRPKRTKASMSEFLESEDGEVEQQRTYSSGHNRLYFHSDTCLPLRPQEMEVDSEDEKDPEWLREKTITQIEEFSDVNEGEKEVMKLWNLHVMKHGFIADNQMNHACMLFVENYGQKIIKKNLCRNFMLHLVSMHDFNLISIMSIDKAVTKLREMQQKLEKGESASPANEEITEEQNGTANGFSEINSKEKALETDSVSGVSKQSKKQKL
ASSAY_DETAILS: EZH2 assay: rPRC2 with biotinylated oligonucleosome substrates and 3H SAM, FlashPlate scintillation counting, IC50
Type: biochemical
RECORDED_CONDITIONS: rPRC2, biotinylated oligonucleosome substrates, 3H SAM; read-out: EZH2 IC50
Examples of compounds with documented IC50 follow.

Solved cases (3 shown):
Read the entry CC1(C)CC(NC(=O)c2ccc(Oc3ccccc3C3CCCCC3)cc2)CC(C)(C)N1 [Compound I-150] and write its reported IC50.
5 to 20 µM

Output IC50 of CC1(C)CC(NC(=O)c2ccc(Oc3ccccc3CN3CCCC3)cc2)CC(C)(C)N1 [Compound I-250]
20 to 80 µM

Query IC50 for CC1(C)CC(NC(=O)c2ccc(Oc3ccccc3C#N)c(-c3ccsc3)c2)CC(C)(C)N1 [Compound I-212]
< 5 µM

Please examine the following record next.
Find the measured IC50 of CC1(C)CC(NC(=O)c2ccc(Oc3ccccc3O)cc2)CC(C)(C)N1 [Compound I-123] and report it.
> 80 µM

====

TARGET_ENTITY: UniProt Q15910
ASSAY_DETAILS: EZH2 assay: rPRC2 with biotinylated oligonucleosome substrates and 3H SAM, FlashPlate scintillation counting, IC50
Assay type: biochemical
RECORDED_CONDITIONS: rPRC2, biotinylated oligonucleosome substrates, 3H SAM; read-out: EZH2 IC50
OUTCOME_MEASURE: IC50

Answered examples (6):
Query IC50 for COc1ccc(Oc2ccc(C(=O)NC3CC(C)(C)NC(C)(C)C3)cc2)c(C#N)c1 [Compound I-177]
> 80 µM

Read the entry CC1(C)CC(NC(=O)c2ccc(Oc3cccc4cnccc34)cc2)CC(C)(C)N1 [Compound I-171] and write its reported IC50.
< 5 µM

Write down IC50 measured for item N#Cc1c(Oc2ccc(C(=O)NC3CCNCC3)cc2Cl)cccc1-c1cn[nH]c1 [Compound I-373]
> 80 µM

Return the recorded IC50 value; entry: CC1(C)CC(NC(=O)c2ccc(Oc3cccc(-c4cnc(N)nc4)c3)cc2)CC(C)(C)N1 [Compound I-251]
20 to 80 µM

For the molecule CC1(C)CC(NC(=O)c2ccc(Oc3ccccc3C#N)c(Cl)c2)CCN1 (centres unmarked) [Compound I-503] , give its reported IC50.
5 to 20 µM

Return IC50 for the following molecule: CC1(C)CC(NC(=O)c2ccc(Oc3cccc(-c4ccc(N)nc4)c3)cc2)CC(C)(C)N1 [Compound I-228]
5 to 20 µM

Next:
Check the records and state IC50 for Cc1ccccc1Oc1ccc(C(=O)NC2CC(C)(C)NC(C)(C)C2)cc1 [Compound I-48]
20 to 80 µM

Return the recorded IC50 value; entry: CC1(C)CC(NC(=O)N2CCN(Cc3ccccc3C#N)CC2)CC(C)(C)N1 [Compound I-438]
> 80 µM

====

TARGET_ENTITY: EZH2 (Homo sapiens, UniProt Q15910)
ASSAY_DETAILS: EZH2 assay: rPRC2 with biotinylated oligonucleosome substrates and 3H SAM, FlashPlate scintillation counting, IC50
Type: biochemical
RECORDED_CONDITIONS: rPRC2, biotinylated oligonucleosome substrates, 3H SAM; read-out: EZH2 IC50
OUTCOME_MEASURE: IC50

Respond only with IC50 recorded for CC1(C)CC(NC(=O)c2ccc(Sc3ccccc3)c(Cl)c2)CC(C)(C)N1 [Compound I-300]
20 to 80 µM

Name the recorded IC50 of the compound listed here: CC1(C)CC(NC(=O)c2ccc(Oc3cccc(N4CCOCC4)c3C#N)c(Cl)c2)CC(C)(C)N1 [Compound I-391]
< 5 µM

For the compound CC1(C)CC(C)(NC(=O)c2ccc(Oc3cccc(-c4ccnnc4)c3C#N)c(Cl)c2)CC(C)(C)N1 [Compound I-507] , report IC50.
20 to 80 µM

Query compound follows.
Consider the compound CC1(C)CC(OCc2ccc(Oc3cccc(-c4ccncn4)c3C#N)c(Cl)c2)CC(C)(C)N1 [Compound I-591] . State its measured IC50.
< 5 µM

====

TARGET_ENTITY: EZH2 (Homo sapiens, UniProt Q15910)
ASSAY_DETAILS: EZH2 assay: rPRC2 with biotinylated oligonucleosome substrates and 3H SAM, FlashPlate scintillation counting, IC50
Assay type: biochemical
RECORDED_CONDITIONS: rPRC2, biotinylated oligonucleosome substrates, 3H SAM; read-out: EZH2 IC50
OUTCOME_MEASURE: IC50

Tell us which IC50 value is on record for CC1(C)CC(NC(=O)c2ccc(N3CCOC(c4ccccc4)C3)c(Cl)c2)CC(C)(C)N1 (stereo not shown) [Compound I-416]
> 80 µM

More entries:
Hello, please tell me recorded IC50 for this one: CC1(C)CC(NC(=O)c2ccc(COc3ccnc4ccccc34)cc2)CC(C)(C)N1 [Compound I-128]
> 80 µM

Return IC50 (reported value) for this molecule: CC1(C)CC(NC(=O)c2ccc(Oc3cncc(-c4ccncc4)c3C#N)c(Cl)c2)CC(C)(C)N1 [Compound I-520]
< 5 µM

Please report IC50 for the following molecule: CC1(C)CC(NC(=O)c2ccc(Oc3ccccc3C#N)c(Cl)c2)CC(c2ccccc2)N1 (stereo not shown) [Compound I-409]
20 to 80 µM

Consider the molecule CC1(C)CC(NC(=O)c2ccc(Oc3nccc4ccccc34)c(Cl)c2)CC(C)(C)N1 [Compound I-242] . State its measured IC50.
20 to 80 µM

====

The entries below come with measured IC50 values attached.
TARGET_ENTITY: EZH2 (Homo sapiens, UniProt Q15910)
ASSAY_DETAILS: EZH2 assay: rPRC2 with biotinylated oligonucleosome substrates and 3H SAM, FlashPlate scintillation counting, IC50
Type: biochemical
RECORDED_CONDITIONS: rPRC2, biotinylated oligonucleosome substrates, 3H SAM; read-out: EZH2 IC50

Tell me its IC50 given Cc1nnc2n1-c1ccccc1C(c1ccc(C(=O)NC3CC(C)(C)NC(C)(C)C3)cc1)=NC2 [Compound I-488] as the entry.
> 80 µM

Give the reported value of IC50 for this record: CC1(C)CC(NC(=O)c2ccc(Oc3ccccc3C#N)cc2Cl)CC(C)(C)N1 [Compound I-174]
20 to 80 µM

Return the recorded IC50 value; entry: N#Cc1ccccc1Oc1ccc(C(=O)NC2CCNCC2)cc1Cl [Compound I-178]
> 80 µM

Read off the recorded IC50 for CN1CCN(c2cccc(Oc3ccc(C(=O)NC4CC(C)(C)NC(C)(C)C4)cc3Cl)c2)CC1 [Compound I-417]
20 to 80 µM

// Input: CC1(C)CC(NC(=O)c2ccc3cc(Oc4ccccc4C#N)ccc3c2)CC(C)(C)N1 [Compound I-200] . Output its IC50 only.
20 to 80 µM

Give IC50 for the following compound: Cc1cc(C(=O)NC2CC(C)(C)NC(C)(C)C2)ccc1Oc1ccccc1C#N [Compound I-223]
< 5 µM

Next:
Note down IC50 recorded for CC1(C)CC(NC(=O)c2ccc(Oc3ccccc3-c3ncco3)c(Cl)c2)CC(C)(C)N1 [Compound I-253]
< 5 µM

State, in one line, measured IC50 of CC1(C)CC(NC(=O)c2ccc(Oc3cccc(O)c3)cc2)CC(C)(C)N1 [Compound I-29]
20 to 80 µM

Assign IC50 to the following record: CC1(C)CC(NC(=O)c2ccc(Oc3cc(Br)ccc3C#N)c(Cl)c2)CC(C)(C)N1 [Compound I-255]
< 5 µM

Provide measured IC50 value, entry: CC1(C)CC(NC(=O)c2ccc(Oc3cccc(-c4ccc(O)nc4)c3C#N)c(Cl)c2)CC(C)(C)N1 [Compound I-558]
< 5 µM

# return recorded IC50 for input N#Cc1c(Oc2ccc(C(=O)NC3CCN(CCO)CC3)cc2Cl)cccc1-c1ccnnc1 [Compound I-474]
20 to 80 µM

Note down IC50 recorded for CC1(C)CC(NC(=O)c2ccc(Oc3ccccc3C#N)c(C(F)(F)F)c2)CC(C)(C)N1 [Compound I-218]
< 5 µM

Given CC1(C)CC(NC(=O)c2ccc(Oc3ccccc3-c3nccs3)c(Cl)c2)CC(C)(C)N1 [Compound I-278] , respond with its IC50.
< 5 µM

Read off the recorded IC50 for CC(C)CNC(=O)c1ccc(Oc2ccccc2)cc1 [Compound I-139]
> 80 µM

Read the entry CC1(C)CC(NC(=O)c2ccc(Oc3ccccc3C#N)cn2)CC(C)(C)N1 [Compound I-205] and write its reported IC50.
5 to 20 µM

Look up and state reported IC50 for CC1(C)CC(NC(=O)c2ccc(COc3cccc(F)c3)cc2)CC(C)(C)N1 [Compound I-59]
20 to 80 µM
